I'd be grateful if you could share measured IC50 for these entries.
biological target: HER2 YVMA (Homo sapiens, UniProt P04626, INS775YVMA); construct: expressed in transfected cells; host or cells: BaF3 (murine pro-B); test: Activity for inhibiting HER2 (Table B), HER2 YVMA; type: cell-based; settings: read-out: HER2 YVMA, potency code (IC50)
Sequence (P04626 with tags, fused parts or gaps INS775YVMA): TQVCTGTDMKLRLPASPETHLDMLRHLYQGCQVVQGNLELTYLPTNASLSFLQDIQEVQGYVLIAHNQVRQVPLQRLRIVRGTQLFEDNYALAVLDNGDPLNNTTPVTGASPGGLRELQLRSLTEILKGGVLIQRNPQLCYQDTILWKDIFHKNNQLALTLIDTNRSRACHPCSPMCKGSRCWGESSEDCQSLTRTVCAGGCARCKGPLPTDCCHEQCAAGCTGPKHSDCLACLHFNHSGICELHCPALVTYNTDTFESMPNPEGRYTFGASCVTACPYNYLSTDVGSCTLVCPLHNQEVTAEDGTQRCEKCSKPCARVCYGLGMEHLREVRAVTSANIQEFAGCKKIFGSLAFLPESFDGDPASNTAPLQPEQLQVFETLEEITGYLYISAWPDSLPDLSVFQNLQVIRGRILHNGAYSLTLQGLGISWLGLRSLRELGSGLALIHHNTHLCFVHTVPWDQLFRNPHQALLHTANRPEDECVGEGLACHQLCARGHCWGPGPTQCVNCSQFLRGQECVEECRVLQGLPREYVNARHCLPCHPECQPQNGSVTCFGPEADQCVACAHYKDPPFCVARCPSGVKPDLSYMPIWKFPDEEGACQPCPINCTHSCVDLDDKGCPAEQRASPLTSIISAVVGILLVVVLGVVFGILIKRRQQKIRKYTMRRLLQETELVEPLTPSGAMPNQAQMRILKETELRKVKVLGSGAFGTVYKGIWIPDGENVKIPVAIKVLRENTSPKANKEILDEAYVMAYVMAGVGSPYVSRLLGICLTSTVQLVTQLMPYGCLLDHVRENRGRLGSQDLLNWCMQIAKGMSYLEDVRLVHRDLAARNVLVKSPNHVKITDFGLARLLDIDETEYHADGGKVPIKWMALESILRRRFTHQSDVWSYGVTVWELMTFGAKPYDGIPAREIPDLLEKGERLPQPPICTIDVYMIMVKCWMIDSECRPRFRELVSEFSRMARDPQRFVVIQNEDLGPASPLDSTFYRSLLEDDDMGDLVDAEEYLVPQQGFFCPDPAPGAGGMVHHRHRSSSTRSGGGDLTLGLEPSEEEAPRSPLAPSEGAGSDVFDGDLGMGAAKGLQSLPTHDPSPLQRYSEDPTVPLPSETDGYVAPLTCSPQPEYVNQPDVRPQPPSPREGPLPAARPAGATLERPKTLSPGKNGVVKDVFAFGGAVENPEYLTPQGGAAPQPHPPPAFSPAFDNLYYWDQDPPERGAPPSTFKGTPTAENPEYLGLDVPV

Q: Using the record for C=CC(=O)Nc1cc2c(Nc3ccc(OCc4ccccn4)c(Cl)c3)ncnc2cc1OCCC1COCCN1C (stereo not shown) , report its IC50.
A: 0.05 to 0.1 µM

Q: Using the record for C=CC(=O)Nc1cc2c(Nc3ccc(OCc4ccccn4)c(Cl)c3)ncnc2cc1OCCN1CCC2C1CCN2C (stereo not shown) , report its IC50.
A: 0.1 to 0.2 µM

Q: Using the record for C=CC(=O)Nc1cc2c(Nc3ccc(OCc4ccccn4)cn3)ncnc2cc1OC1CCN(C)C1 (stereo not shown) , report its IC50.
A: > 1 µM

Q: Using the record for CC#CC(=O)Nc1cc2c(Nc3ccc(OCc4ccccn4)c(Cl)c3)ncnc2cc1C#CC1[C@H]2CN(C)C[C@@H]12 (stereo partly shown) , report its IC50.
A: 0.03 to 0.05 µM

Q: Using the record for C=CC(=O)Nc1cc2c(Nc3ccc(OCc4cccnn4)c(Cl)c3)ncnc2cc1OCCCN1CC(OC)C1 , report its IC50.
A: 0.05 to 0.1 µM

Q: Using the record for CC#CC(=O)Nc1cc2c(Nc3cc(Cl)c(OCc4cccc(F)c4)cc3F)ncnc2cc1O[C@@H]1CCN(C)C1 , report its IC50.
A: 0.1 to 0.2 µM

Q: Using the record for C=CC(=O)Nc1cc2c(Nc3ccc(OCc4cccc(F)n4)c(Cl)c3)ncnc2cc1OCCCN1C[C@@H]2C[C@H]1CO2 , report its IC50.
A: 0.1 to 0.2 µM

Q: Using the record for C=CC(=O)Nc1cc2c(Nc3ccc(OCc4cccc(F)n4)c(Cl)c3)ncnc2cc1OCCCN1C[C@H]2C[C@@H]1CO2 , report its IC50.
A: 0.1 to 0.2 µM

Q: Using the record for C=CC(=O)Nc1cc2c(Nc3ccc(OCc4ccccn4)c(Cl)c3)ncnc2cc1OCCN1CC2CC1CO2 (stereo not shown) , report its IC50.
A: 0.05 to 0.1 µM

Q: Using the record for CC#CC(=O)Nc1cc2c(Nc3cc(Cl)c(OCc4cccc(F)c4)cc3F)ncnc2cc1OCCN1CC(OC)C1 , report its IC50.
A: 0.05 to 0.1 µM

----------
biological target: HER2 WT (Homo sapiens); experiment: Activity for inhibiting HER2 (Table B), HER2 WT; assay type: cell-based; conditions: text lists of compounds; read-out: IC50 value for inhibiting wild-type HER2
Sequence (P04626 23-1255): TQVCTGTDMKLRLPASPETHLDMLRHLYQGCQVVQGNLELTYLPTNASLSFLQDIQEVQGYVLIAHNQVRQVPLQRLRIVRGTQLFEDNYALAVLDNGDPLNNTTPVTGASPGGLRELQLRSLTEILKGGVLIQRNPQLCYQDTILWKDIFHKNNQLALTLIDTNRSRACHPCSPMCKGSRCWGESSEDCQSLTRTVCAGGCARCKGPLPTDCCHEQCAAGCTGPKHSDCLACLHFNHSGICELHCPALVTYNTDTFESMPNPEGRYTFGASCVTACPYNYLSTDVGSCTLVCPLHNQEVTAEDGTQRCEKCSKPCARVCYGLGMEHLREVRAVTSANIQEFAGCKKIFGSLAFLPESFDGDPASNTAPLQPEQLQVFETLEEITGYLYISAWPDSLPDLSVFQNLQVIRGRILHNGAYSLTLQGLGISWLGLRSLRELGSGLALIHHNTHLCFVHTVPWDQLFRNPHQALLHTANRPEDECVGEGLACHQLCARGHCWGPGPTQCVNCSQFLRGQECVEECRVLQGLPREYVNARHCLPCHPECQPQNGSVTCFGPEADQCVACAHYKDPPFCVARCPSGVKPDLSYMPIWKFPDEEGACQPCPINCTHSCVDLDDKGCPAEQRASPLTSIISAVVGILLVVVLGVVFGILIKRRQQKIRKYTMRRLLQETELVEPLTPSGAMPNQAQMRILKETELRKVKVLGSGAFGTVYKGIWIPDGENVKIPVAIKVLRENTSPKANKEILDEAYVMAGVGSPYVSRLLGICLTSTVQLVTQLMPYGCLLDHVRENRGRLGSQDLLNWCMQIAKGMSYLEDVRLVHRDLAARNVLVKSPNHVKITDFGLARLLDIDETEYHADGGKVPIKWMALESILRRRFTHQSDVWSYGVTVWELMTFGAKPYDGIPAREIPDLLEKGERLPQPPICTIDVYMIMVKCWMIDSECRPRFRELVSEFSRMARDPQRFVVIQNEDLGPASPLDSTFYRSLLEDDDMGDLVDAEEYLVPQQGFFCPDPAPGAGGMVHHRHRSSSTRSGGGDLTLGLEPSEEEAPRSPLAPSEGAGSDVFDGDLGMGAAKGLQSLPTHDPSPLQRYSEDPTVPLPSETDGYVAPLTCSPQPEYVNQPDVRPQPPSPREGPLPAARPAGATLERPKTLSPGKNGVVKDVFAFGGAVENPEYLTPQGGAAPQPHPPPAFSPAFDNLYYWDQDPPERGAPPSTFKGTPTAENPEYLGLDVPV
pIC50: −log10 of the molar value.
READOUT: pIC50

Q: Using the record for C=CC(=O)Nc1cc2c(Nc3cc(Cl)c(OCc4ccccn4)cc3F)ncnc2cc1OCCN1CCOCC1 , report its pIC50.
A: ≥ 8.00

Q: Using the record for C=CC(=O)Nc1cc2c(Nc3ccc(OCc4ccccn4)c(Cl)c3)ncnc2cc1OCCCN1CCOCC1 , report its pIC50.
A: ≥ 8.00

Q: Using the record for C=CC(=O)Nc1cc2c(Nc3ccc(OCc4ccccn4)c(Cl)c3)ncnc2cc1OCCN1CCC1 , report its pIC50.
A: ≥ 8.00

Q: Using the record for C=CC(=O)Nc1cc2c(Nc3cc(Cl)c(OCc4cccc(F)c4)cc3F)ncnc2cc1OCCN1CCOCC1 , report its pIC50.
A: ≥ 8.00

Q: Using the record for C=CC(=O)Nc1cc2c(Nc3ccc(OCc4ccccn4)c(Cl)c3)ncnc2cc1OCCN1CC2(CCO2)C1 , report its pIC50.
A: ≥ 8.00

Q: Using the record for C=CC(=O)Nc1cc2c(Nc3ccc(OCc4ccccn4)c(Cl)c3)ncnc2cc1OC1CC(N(C)C)C1 (stereo not drawn) , report its pIC50.
A: ≥ 8.30

Q: Using the record for C=CC(=O)Nc1cc2c(Nc3ccc(OCc4cccc(F)c4)c(Cl)c3)ncnc2cc1OCCN1CCOCC1 , report its pIC50.
A: ≥ 7.70

Q: Using the record for C=CC(=O)Nc1cc2c(Nc3ccc(OCc4ccccn4)cc3)ncnc2cc1OCCn1ccnc1 , report its pIC50.
A: ≥ 7.70

Q: Using the record for C=CC(=O)Nc1cc2c(Nc3ccc(OCc4ccccn4)cc3F)ncnc2cc1OC1CCN(C)C1 (stereo not drawn) , report its pIC50.
A: ≥ 7.30

Q: Using the record for C=CC(=O)Nc1cc2c(Nc3ccc(OCc4ccccn4)c(Cl)c3)ncnc2cc1O[C@@H]1CCN(C)C1 , report its pIC50.
A: ≥ 8.30

Q: Using the record for C=CC(=O)Nc1cc2c(Nc3ccc(OCc4ccccn4)cc3)ncnc2cc1OCCN1CC2CN(C)CC2C1 (stereo not drawn) , report its pIC50.
A: ≥ 7.30

Q: Using the record for C=CC(=O)Nc1cc2c(Nc3ccc(OCc4ccccn4)c(Cl)c3)ncnc2cc1OCCN1CC(F)C1 , report its pIC50.
A: ≥ 7.70

Q: Using the record for C=CC(=O)Nc1cc2c(Nc3ccc(OCc4ccccn4)cc3F)ncnc2cc1OCCN1CCOCC1 , report its pIC50.
A: ≥ 7.30

Q: Using the record for C=CC(=O)Nc1cc2c(Nc3ccc(OCc4ccccn4)c(Cl)c3)ncnc2cc1O[C@H]1CCN(C)C1 , report its pIC50.
A: ≥ 8.00

Q: Using the record for C=CC(=O)Nc1cc2c(Nc3ccc(OCc4ccccn4)c(Cl)c3)ncnc2cc1OCCN1CCOCC1 , report its pIC50.
A: ≥ 8.00
